# Test system: SK-MEL-28 melanoma
# experiment_notes: NCI tumour cell line growth inhibition, 48 h; in the data active means GI50 below about 0.43 µM; inactive means the rest
Classes used: active, inactive

>>> discrete_label("Cc1cc(Nc2nc(SCc3ccc(C(=O)Nc4ccc(F)cc4N)cc3)nn3cccc23)n[nH]1")
"inactive"
>>> discrete_label("O=c1c2c3c(sc2n2c(-c4cc(-c5ccccc5)nn4-c4ccccc4)nnc2n1Cc1ccccc1)CCCC3")
"inactive"
>>> discrete_label("C=C(CN1CCc2ccccc2C1)c1ccc(C(=O)Nc2ccccc2N)cc1")
"active"
>>> discrete_label("Cc1ccc2nc3c(Cl)c(C)c(=O)cc-3sc2c1")
"inactive"
>>> discrete_label("Cc1ncc(C(=O)Nc2ccc(CN3CCN(C)CC3)c(C(F)(F)F)c2)cc1C#Cc1cnc(NC2CC2)c2ncccc12")
"inactive"
>>> discrete_label("CC(=O)[O-].CC(=O)[O-].CC(=O)[O-].CC(=O)[O-].[Mo+2].[Mo+2]")
"inactive"
>>> discrete_label("O=S(=O)(CCOCc1ccc(-c2ccc3ncnc(Nc4ccc(OCc5cccc(F)c5)c(Cl)c4)c3c2)o1)c1ccccc1")
"inactive"
>>> discrete_label("CCCCCCCCCCN=C(c1ccc(N(C)C)cc1)c1ccc(N(C)C)cc1")
"inactive"
>>> discrete_label("CC(=O)N[C@H](C(=O)N[C@@H](CCCNC(=N)N)C(=O)N[C@@H](CCCCN)C(=O)N[C@@H](CCCNC(=N)N)C(=O)N[C@]1(C)CCCCCC/C=C\\CCC[C@@](C)(C(=O)N[C@@H](CCCNC(=N)N)C(=O)N[C@@H](CCC(=O)O)C(=O)N[C@@H](CC(C)C)C(=O)N[C@H](C(=O)N[C@@H](CCC(=O)O)C(N)=O)C(C)C)NC(=O)[C@H](CCC(N)=O)NC(=O)[C@H](CC(C)C)NC(=O)[C@H](CC(C)C)NC(=O)[C@H](CCCNC(=N)N)NC(=O)[C@H](CCCNC(=N)N)NC(=O)[C@H](CC(C)C)NC1=O)C(C)C")
"inactive"
>>> discrete_label("COc1cc2c(cc1-c1c(C)noc1C)cc(C)c(=O)n2Cc1ccccn1")
"inactive"
>>> discrete_label("Cn1c(/C(C#N)=C/c2ccc3ccccc3c2)cc2ccccc21")
"inactive"
>>> discrete_label("Cn1c([N+](=O)[O-])cnc1/C=C1\\Oc2cc(Cl)ccc2C1=O")
"inactive"
>>> discrete_label("CCC(=C(c1ccc(OCCCN(C)C)cc1)c1ccc(OCCCN(C)C)cc1)c1ccc(Cl)cc1")
"active"
>>> discrete_label("CNC(=O)c1cc2c(Oc3ccc(NC(=O)C4(C(=O)Nc5ccc(F)cc5)CC4)cc3)ccnc2cc1OC")
"inactive"
>>> discrete_label("CCC1=C[C@@H]2CN(C1)Cc1c([nH]c3ccccc13)[C@@](C(=O)OC)(c1cc3c(cc1OC)N(C)[C@H]1[C@@](O)(C(=O)OC)[C@H](OC(C)=O)[C@]4(CC)[C@@H]5C[C@@H]5CN5CC[C@]31[C@@H]54)C2")
"active"

###

# System: PC-3 prostate
# experiment_notes: NCI tumour cell line growth inhibition, 48 h
Where a SMILES comes first, the peptide text is derived from it. The star is where a group is joined. Boc = CC(C)(C)OC(=O)*
quantity_measured: TGI

>>> experimental_result("O=C(c1cc2ccccc2cc1O)N1CCCCC1")
"> 100 µM"
>>> experimental_result("N#C/C(=C\\c1cc(Br)c(O)c(Br)c1)c1cccnc1")
"69.7 µM"
>>> experimental_result("CCOC(=O)NC(=S)NN(C)C1=NCC(C)(C)S1")
"> 100 µM"
>>> experimental_result("c1ccc(Cn2cnc3ccc(-c4nc(-c5ccc6c(c5)ncn6C5CCCCC5)cn5ccnc45)cc32)cc1")
"7.55 µM"
>>> experimental_result("C=C[C@@H]1C(CO)=CCC2[C@H]1CCC1C(C)(C)C(=O)CC[C@]21C (stereo partly specified)")
"> 100 µM"
>>> experimental_result("CC(C)(C)OC(=O)NCC(=O)NCC(=O)NCC(=O)NCC(=O)O (Boc-GGGG-OH)")
"> 100 µM"
>>> experimental_result("CCN(CCO)CC1COc2ccccc2O1 (stereo unspecified)")
"> 100 µM"
>>> experimental_result("COc1cc(C2CC(C)(Nc3ccccc3)Oc3cc4c(cc32)OCO4)cc(OC)c1OC (stereo unspecified)")
"> 100 µM"
>>> experimental_result("N#CCCN(CCC#N)c1ccc(/C=C2\\N=C(c3ccccc3)N(c3ccc(Cl)cc3)C2=O)cc1")
"> 100 µM"
>>> experimental_result("C/C=C/C=C/c1nc(C#N)c(N)o1")
"> 100 µM"
>>> experimental_result("O=c1cc(N=P(c2ccccc2)(c2ccccc2)c2ccccc2)n(-c2ccccc2)c(=O)n1-c1ccccc1")
"18.6 µM"
